This section presents binders with their documented Inhibition rate (%) values.
- TARGET DESC: T1, human LAG-3 protein with hFc tag (hLAG-3-hFc protein) (human, UniProt P18627 23-450)
- T1 construct: also called immunogen 1; LAG-3 extracellular domain protein; not shown: human IgG Fc fragment (hFc) of the pCpC vector
- T1 sequence: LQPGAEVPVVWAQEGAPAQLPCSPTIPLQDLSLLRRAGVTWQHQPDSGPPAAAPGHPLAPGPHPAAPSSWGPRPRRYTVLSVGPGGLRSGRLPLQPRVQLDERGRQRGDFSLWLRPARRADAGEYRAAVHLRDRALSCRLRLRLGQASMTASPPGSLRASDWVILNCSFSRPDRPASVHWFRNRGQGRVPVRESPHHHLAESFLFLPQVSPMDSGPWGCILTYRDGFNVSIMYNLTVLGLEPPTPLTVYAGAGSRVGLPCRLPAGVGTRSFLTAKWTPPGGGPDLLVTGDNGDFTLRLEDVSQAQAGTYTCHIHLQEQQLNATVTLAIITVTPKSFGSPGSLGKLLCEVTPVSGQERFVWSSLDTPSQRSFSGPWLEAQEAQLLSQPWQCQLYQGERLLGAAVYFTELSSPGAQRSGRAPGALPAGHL
- TEST SUMMARY: FACS, blocks LAG-3-hFc binding to MHC II on Raji; 0.274 nM
OUTCOME MEASURE: Inhibition rate (%)

{"BINDER": "409D4E10 (mouse antibody purified from hybridoma) (antibody, V domains shown, also called mAb112-409D4E10) VH: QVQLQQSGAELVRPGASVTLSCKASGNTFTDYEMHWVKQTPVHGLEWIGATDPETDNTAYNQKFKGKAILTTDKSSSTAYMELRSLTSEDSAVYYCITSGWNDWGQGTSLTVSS VL: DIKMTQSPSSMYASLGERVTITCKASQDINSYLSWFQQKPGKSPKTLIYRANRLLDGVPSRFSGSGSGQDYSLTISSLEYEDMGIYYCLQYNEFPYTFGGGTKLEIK", "TEST RESULT": -7.5}
{"BINDER": "105F1E10 (mouse antibody purified from hybridoma) (antibody, V domains shown, also called mAb009-105F1E10) VH: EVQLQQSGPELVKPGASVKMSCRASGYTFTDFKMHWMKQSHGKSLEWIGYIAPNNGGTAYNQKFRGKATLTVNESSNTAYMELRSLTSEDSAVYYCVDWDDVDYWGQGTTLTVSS VL: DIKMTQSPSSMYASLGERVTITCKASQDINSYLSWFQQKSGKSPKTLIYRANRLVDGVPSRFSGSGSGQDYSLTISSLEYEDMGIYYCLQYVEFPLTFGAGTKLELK", "TEST RESULT": -8.3}
